# tested_target: HNE (elastase derived from human sputum, HSE) (Homo sapiens, UniProt P08246)
# Sequence (P08246 30-267): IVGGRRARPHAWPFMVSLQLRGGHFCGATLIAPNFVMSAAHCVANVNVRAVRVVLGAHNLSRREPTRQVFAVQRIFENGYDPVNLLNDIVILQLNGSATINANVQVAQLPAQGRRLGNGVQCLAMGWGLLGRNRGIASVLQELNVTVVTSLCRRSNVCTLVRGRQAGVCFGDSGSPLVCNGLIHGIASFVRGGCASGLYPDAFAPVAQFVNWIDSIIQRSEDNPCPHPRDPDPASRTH
readout_kind: pKi
Units for pKi: none; it is -log10 of a concentration expressed in mol/L.

Sample answers from the record:
Documented pKi of CC(C)C(NC(=O)Cn1c(-c2ccc(F)cc2)nccc1=O)C(=O)c1nnc(C(C)(C)c2ccc3c(c2)OCO3)o1 (racemic) : 8.82

Documented pKi of COC(=O)NC(C(=O)N1CCCC1C(=O)NC(C(=O)c1nnc(C(C)(C)c2ccccc2)o1)C(C)C)C(C)C (stereo not drawn) : 8.88

Documented pKi of CC(C)C(NC(=O)Cn1c(-c2ccccc2)nccc1=O)C(=O)c1nnc(C(C)(C)c2ccc3c(c2)OCO3)o1 (racemic) : 9.47

Documented pKi of COC(=O)NC(C(=O)N1CCCC1C(=O)NC(C(=O)c1nnc(C(C)(C)c2ccc3c(c2)OCO3)o1)C(C)C)C(C)C (stereo not drawn) : 9.62

Documented pKi of CC(C)C(NC(=O)Cn1c(-c2ccccc2)ncc(N)c1=O)C(=O)c1nnc(C(C)(C)c2ccc3c(c2)OCO3)o1 (racemic) : 8.97

Attention now turns to another entry.
Documented pKi of CC(C)C(NC(=O)Cn1c(-c2ccc(F)cc2)nccc1=O)C(=O)c1nnc(C(C)(C)c2ccccc2)o1 (racemic) : 8.27
